measurement-parameters: at ambient condition; sodium salt
recorded-endpoint: Time after which the polymorph converts to Pattern C

Q: Could you share which Time after which the polymorph converts to Pattern C value was measured for Cc1c(-c2ccc(-c3ccccc3F)cc2)nc2ccc(F)cc2c1C(=O)[O-].[Na+] [Pattern I] ?
A: 2 days at ambient condition.

----------
measurement-parameters: unstable forms convert to Pattern C; sodium salt
recorded-endpoint: Stability of the polymorphic form under ambient conditions (temperature and humidity)

compound | value-measured
Cc1c(-c2ccc(-c3ccccc3F)cc2)nc2ccc(F)cc2c1C(=O)[O-].[Na+] [Pattern E] | unstable
Cc1c(-c2ccc(-c3ccccc3F)cc2)nc2ccc(F)cc2c1C(=O)[O-].[Na+] [Pattern I] | unstable
Cc1c(-c2ccc(-c3ccccc3F)cc2)nc2ccc(F)cc2c1C(=O)[O-].[Na+] [Pattern J] | unstable

----------
measurement-parameters: Table 3, solid polymorph of brequinar sodium salt on storage
recorded-endpoint: Comments: stability of the polymorph

Q: Could you share which Comments: stability of the polymorph value was measured for Cc1c(-c2ccc(-c3ccccc3F)cc2)nc2ccc(F)cc2c1C(=O)[O-].[Na+] [Pattern G] ?
A: 15.3%), unstable, convert

Origin of the recorded values: patent US12076315B2
